Tested on: TRPC4 (mouse), co-expressed with 5HT1a in HEK293
assay_name: enhancement of serotonin-evoked TRPC4 response – cell-based, second counter screen, HEK293 TRPC4/5HT1a, Fluo-4, counter-screen for TRPC4 potentiator project, confirmation (AID 434979)
applied_conditions: Fluo-4 calcium flux, at 10 µM, serotonin added at its EC20 dose
The source made the active and inactive calls.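 The calls were made as follows: active = signal rise over 3 SD above mean of control wells given weak agonist, in both repeats and first screen; inactive = the rest.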
Outcomes you can answer with include only these: active, inactive

So what was the verdict on NC(=O)N/N=C1\c2ccccc2-c2c(C(N)=O)cccc21 in this test? inactive

So what was the verdict on CC(C)Cc1nc(Cl)c(C#N)c2c1CCCC2 in this test? inactive

So what was the verdict on COc1ccc(CN(C(=O)c2snc(C(N)=O)c2N)C(CC(C)C)C(=O)NC2CCCCC2)cc1 (stereo not given) in this test? inactive

So what was the verdict on CC1CC(C)CN(CCCNC(=O)c2ccc3c(c2)N(Cc2ccccc2)C(=O)c2ccccc2S3=O)C1 (stereo not given) in this test? inactive

So what was the verdict on O=[N+]([O-])c1ccc(/C=N/Nc2nc(N3CCCCC3)nc(N3CCCCC3)n2)o1 in this test? active

* * *

System: TRPC4 beta (transient receptor potential cation channel C4), mouse
assay_name: TRPC4 cation channel opening, retest – cell-based, Fluo4 calcium, HEK293 TRPC4beta/mu-opioid, duplicates, 10 µM, confirmation (AID 2426)
applied_conditions: Fluo4 calcium fluorescence, at 10 µM
Active and inactive are the calls of the source.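 How the source made its calls: active means fluorescence ratio normalized to control raised more than 50% in primary screen plus both repeat runs; inactive means the rest.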
Outcomes you can answer with include only these: active, inactive

So what was the verdict on CN(CCNC(=O)c1ccc(/C=N/O)nc1)Cc1ccccc1 in this test? inactive

So what was the verdict on c1ccc(Cn2c(CN3CCCC3)nc3ccccc32)cc1 in this test? inactive

So what was the verdict on CCCc1nc(SC2CCCC2)c2c(=O)n(C)c(=O)n(C)c2n1 in this test? inactive

So what was the verdict on O=C(O)c1nn(CC(=O)N2CCN(c3ncc(C(F)(F)F)cc3Cl)CC2)c(=O)c2ccccc12 in this test? inactive

So what was the verdict on C=CCc1ccccc1OCC(O)CN1CCN(c2ccccc2OC)CC1 (stereo unspecified) in this test? inactive

So what was the verdict on CCN(CC)CCCNC(=O)c1cc2c(-c3ccc(Cl)cc3)nn(C)c2s1 in this test? inactive

So what was the verdict on CC1CCN(CCCCOc2ccc([N+](=O)[O-])cc2)CC1 in this test? inactive

So what was the verdict on CC(C)c1nc2ccc(Br)cn2c1NC1CCCC1 in this test? inactive

So what was the verdict on Cc1cc(Cl)cc(C)c1OCCCCCn1ccnc1 in this test? active

So what was the verdict on COc1cc(COCC(O)CN2CCN(CCN3C(=O)c4cccc5cccc(c45)C3=O)CC2)cc(OC)c1OC (stereo unspecified) in this test? inactive

So what was the verdict on CN1CCN(c2ccc(NC(=O)c3ccc(Br)o3)cc2)CC1 in this test? inactive

* * *

assay_name: serotonin-gated TRPC4 signal block – cell-based, second counter screen, HEK293 TRPC4/5HT1a, Fluo-4, counter-screen for TRPC4 inhibitor project, confirmation (AID 434978)
applied_conditions: Fluo-4 calcium flux, at 10 µM, serotonin added to trigger calcium flux
Activity calls are given as the source filed them.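 Rule for the calls: active = primary screen active whose calcium signal fell more than 3 SD beyond the full-serotonin control mean in both duplicate plates; inactive = the rest.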
Outcomes you can answer with include only these: Yes = active, No = inactive

So what was the verdict on Cc1ccc(S(=O)(=O)N2CCN(c3cc4c(cc3[N+](=O)[O-])n(C)c(=O)n4C)CC2)cc1 in this test? No

So what was the verdict on CCCCN(C)CCNC(=O)c1c[nH]c2ccc(S(=O)(=O)N(CC)CC)cc2c1=O in this test? No

So what was the verdict on NN=C1c2cc([N+](=O)[O-])ccc2-c2ccc([N+](=O)[O-])cc21 in this test? No

So what was the verdict on c1ccc(-c2nc(NCc3ccco3)c3ccccc3n2)cc1 in this test? Yes

So what was the verdict on O=C(c1ccc2c(c1)OCO2)C1CCCN(Cc2cc(F)ccc2-n2cccn2)C1 (stereo not given) in this test? Yes
